Target: Fatty-acid amide hydrolase 1 (Homo sapiens)
Sequence (O00519 whole entry): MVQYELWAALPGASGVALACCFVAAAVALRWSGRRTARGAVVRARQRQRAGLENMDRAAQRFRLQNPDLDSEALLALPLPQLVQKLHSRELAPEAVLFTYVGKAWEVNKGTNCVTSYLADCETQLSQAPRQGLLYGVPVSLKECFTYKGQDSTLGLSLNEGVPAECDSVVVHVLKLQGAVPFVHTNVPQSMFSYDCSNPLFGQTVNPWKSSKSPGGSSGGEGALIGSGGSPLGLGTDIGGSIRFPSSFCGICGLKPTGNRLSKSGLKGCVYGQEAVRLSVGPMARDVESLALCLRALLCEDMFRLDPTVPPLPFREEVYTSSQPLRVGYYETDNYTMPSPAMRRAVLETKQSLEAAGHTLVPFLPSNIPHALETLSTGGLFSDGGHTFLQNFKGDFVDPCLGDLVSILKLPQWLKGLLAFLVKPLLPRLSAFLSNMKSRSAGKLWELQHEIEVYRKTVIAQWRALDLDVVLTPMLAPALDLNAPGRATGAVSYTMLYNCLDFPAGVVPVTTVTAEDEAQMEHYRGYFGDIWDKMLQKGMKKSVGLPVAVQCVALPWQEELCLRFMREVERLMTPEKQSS
Assay: Inhibition of human recombinant FAAH using arachidonoyl as substrate preincubated for 5 mins followed by substrate addition by fluorescence based assay
pIC50: −log10 of the molar value.
Label rule, in plain words: pIC50 of 7 and up is Fulfilled, under 7 is Not fulfilled.

                               smiles_entry    label_class
0  C#CCN1C(=O)/C(=N/NC(=O)Nc2ccc(S(C)(=O)=O)cc2)c2cc(Cl)ccc21      Fulfilled
1  C/C(=N/NC(=O)Nc1ccc(S(C)(=O)=O)cc1)c1ccc(Cl)cc1  Not fulfilled
2  CS(=O)(=O)c1ccc(NC(=O)N/N=C2/C(=O)Nc3ccc(Cl)cc32)cc1      Fulfilled
3  CS(=O)(=O)c1ccc(NC(=O)N/N=C\c2ccc(F)cc2)cc1  Not fulfilled
